- Organism: Homo sapiens
- method_description: Selectivity for human CB2 receptor over human CB1 receptor by cAMP assay
Provide the reported Selectivity ratio of each item.
I only need the number, thanks.

Name the recorded Selectivity ratio of the compound listed here: Cc1ccc(C(=O)N2CCC3CCCCC3C2)cc1S(=O)(=O)NC(C)C (stereo not given)
0.1

Name the recorded Selectivity ratio of the compound listed here: O=C(c1ccc(Cl)c(S(=O)(=O)N2CCCC2)c1)N1CC[C@@H]2CCCC[C@H]2C1 (relative stereo)
3770

Name the recorded Selectivity ratio of the compound listed here: "CC(C)c1ccc(C(=O)NC2CCCCC2)cc1S(=O)(=O)N1CCCC1"
60

Name the recorded Selectivity ratio of the compound listed here: "O=C(NC1CCCCC1)c1ccc(Cl)c(S(=O)(=O)N2CCCC2)c1"
85

Name the recorded Selectivity ratio of the compound listed here: "Cc1ccc(C(=O)Nc2nccc3ccccc23)cc1S(=O)(=O)N1CCCCC1"
25

###

Provide the reported Activity of each item.
- test_system: Cannabinoid receptor 2 (Homo sapiens, UniProt P34972)
- Sequence (P34972 whole entry): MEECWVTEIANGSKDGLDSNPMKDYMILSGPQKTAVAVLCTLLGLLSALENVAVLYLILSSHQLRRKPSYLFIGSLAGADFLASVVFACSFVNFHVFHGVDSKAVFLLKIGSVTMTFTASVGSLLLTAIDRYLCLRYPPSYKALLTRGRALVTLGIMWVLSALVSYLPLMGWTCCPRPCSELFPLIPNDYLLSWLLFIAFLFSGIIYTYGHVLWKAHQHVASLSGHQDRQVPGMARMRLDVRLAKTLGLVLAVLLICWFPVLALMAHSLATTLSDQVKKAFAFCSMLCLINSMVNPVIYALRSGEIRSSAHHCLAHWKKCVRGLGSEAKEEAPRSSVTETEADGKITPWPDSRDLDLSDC
- method_description: Agonist activity at human CB2 receptor expressed in CHO cells assessed as inhibition of forskolin-stimulated cAMP level relative to CP-55940
- Format: functional, cell-based
- Design: scale not given: the % may be the effect or the level left
Hi! Could you send only the number? It should be in %, unit omitted.

Name the recorded Activity of the molecule listed here: Cc1ccc(C(=O)N2CCC3CCCCC3C2)cc1S(=O)(=O)NC(C)C (stereo not given)
101

Name the recorded Activity of the molecule listed here: Cc1ccc(C(=O)N2CCCC3CCCCC32)cc1S(=O)(=O)N1CCCCC1 (stereo not given)
82

Name the recorded Activity of the molecule listed here: Cc1ccc(C(=O)N2CCC3CCCCC3C2)cc1S(=O)(=O)NCC(C)C (stereo not given)
96

Name the recorded Activity of the molecule listed here: Cc1ccc(C(=O)N2CCC3CCCCC3C2)cc1S(=O)(=O)N1CCOCC1 (stereo not given)
104

Name the recorded Activity of the molecule listed here: Cc1ccc(C(=O)N2CCC3CCCCC3C2)cc1S(=O)(=O)N1CCC1 (stereo not given)
94

Name the recorded Activity of the molecule listed here: "Cc1ccc(C(=O)Oc2cccc3cccnc23)cc1S(=O)(=O)N1CCCCC1"
99

Name the recorded Activity of the molecule listed here: "Cc1ccc(C(=O)Nc2nccc3ccccc23)cc1S(=O)(=O)N1CCCCC1"
98

Name the recorded Activity of the molecule listed here: "Cc1ccc(C(=O)N[C@@H](C)C2CCCCC2)cc1S(=O)(=O)N1CCCCC1"
73

Name the recorded Activity of the molecule listed here: "Cc1ccc(C(=O)NC2(C)CCCCC2)cc1S(=O)(=O)N1CCCCC1"
58

Name the recorded Activity of the molecule listed here: Cc1ccc(C(=O)N2CCC3CCCCC3C2)cc1S(=O)(=O)N1CCN(C(C)C)CC1 (stereo not given)
45

###

quantity: Ki (nM)
Hi! Could you send only the number? It should be in nM, unit omitted.

Provide Ki, tested on Cannabinoid receptor 1 (Homo sapiens), for "Cc1ccc(C(=O)Oc2cccc3cccnc23)cc1S(=O)(=O)N1CCCCC1" .
Sequence (P21554 whole entry): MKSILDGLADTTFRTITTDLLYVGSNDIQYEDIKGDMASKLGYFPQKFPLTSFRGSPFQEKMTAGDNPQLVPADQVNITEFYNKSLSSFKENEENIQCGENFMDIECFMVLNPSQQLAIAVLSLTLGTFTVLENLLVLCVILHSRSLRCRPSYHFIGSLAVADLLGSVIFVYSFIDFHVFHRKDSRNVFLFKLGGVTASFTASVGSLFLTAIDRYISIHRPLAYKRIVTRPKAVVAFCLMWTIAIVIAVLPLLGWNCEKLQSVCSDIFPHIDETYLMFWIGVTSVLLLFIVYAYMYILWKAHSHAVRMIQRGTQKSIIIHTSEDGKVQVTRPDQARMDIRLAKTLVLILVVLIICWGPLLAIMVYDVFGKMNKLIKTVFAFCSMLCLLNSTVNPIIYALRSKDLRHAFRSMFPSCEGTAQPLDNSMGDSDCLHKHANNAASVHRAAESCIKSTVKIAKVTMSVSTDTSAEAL
3

###

- test_system: Cannabinoid receptor 2 (Homo sapiens)
- method_description: Agonist activity at human CB2 receptor expressed in CHO cells assessed as inhibition of forskolin-stimulated cAMP level relative to CP-55940
- Format: functional, cell-based
- Set-up: scale not given: the % may be the effect or the level left
quantity: Activity

Name the recorded Activity of the compound listed here: "O=C(NC1CCCCC1)c1ccc(Cl)c(S(=O)(=O)N2CCCC2)c1"
74%

Name the recorded Activity of the compound listed here: Cc1ccc(C(=O)N2CCC3CCCCC3C2)cc1S(=O)(=O)N1CCC(O)CC1 (stereo not given)
86%

Name the recorded Activity of the compound listed here: Cc1ccc(C(=O)N2CCC3CCCCC3C2)cc1S(=O)(=O)N1CCCC1 (stereo not given)
94%

Name the recorded Activity of the compound listed here: "Cc1ccc(C(=O)Nc2ccc3ccccc3n2)cc1S(=O)(=O)N1CCCCC1"
45%

Name the recorded Activity of the compound listed here: "COc1ccccc1NC(=O)c1ccc(C)c(S(=O)(=O)N2CCCCC2)c1"
91%

Name the recorded Activity of the compound listed here: "Cc1ccc(C(=O)NC2CCCCC2)cc1S(=O)(=O)N1CCCC1"
81%

Name the recorded Activity of the compound listed here: Cc1ccc(C(=O)N2CCC3CCCCC3C2)cc1S(=O)(=O)N1CCS(=O)(=O)CC1 (stereo not given)
99%

Name the recorded Activity of the compound listed here: "Cc1ccc(C(=O)Nc2cccc(Cl)c2)cc1S(=O)(=O)N1CCCCC1"
80%

Name the recorded Activity of the compound listed here: Cc1ccc(C(=O)N2CCC3CCCCC3C2)cc1S(=O)(=O)N1CCCCCC1 (stereo not given)
100%

Name the recorded Activity of the compound listed here: O=C(c1ccc(Cl)c(S(=O)(=O)N2CCCC2)c1)N1CC[C@@H]2CCCC[C@H]2C1 (relative stereo)
89%

###

- test_system: Cannabinoid receptor 2 (Homo sapiens)
- method_description: Agonist activity at human CB2 receptor expressed in CHO cells assessed as inhibition of forskolin-stimulated cAMP level
pEC50: −log10 of the molar value.
Decide using pEC50: a value greater than or equal to 8 is Met, a smaller one is Not met.

Please check the record "Cc1ccc(C(=O)Oc2cccc3cccnc23)cc1S(=O)(=O)N1CCCCC1" and state if its pEC50 is at or above 8.
Met

Please check the record Cc1ccc(C(=O)N2CCC3CCCCC3C2)cc1S(=O)(=O)NC(C)C (stereo not drawn) and state if its pEC50 is at or above 8.
Not met

Please check the record CC(C)c1ccc(C(=O)N2CCC3CCCCC3C2)cc1S(=O)(=O)N1CCCC1 (stereo not drawn) and state if its pEC50 is at or above 8.
Met

Please check the record "Cc1ccc(C(=O)Nc2ccc3ccccc3n2)cc1S(=O)(=O)N1CCCCC1" and state if its pEC50 is at or above 8.
Not met

Please check the record O=C(c1ccc(Cl)c(S(=O)(=O)N2CCCC2)c1)N1CCC2CCCCC2C1 (stereo not drawn) and state if its pEC50 is at or above 8.
Met

Please check the record O=C(c1ccc(Cl)c(S(=O)(=O)N2CCCC2)c1)N1CC[C@@H]2CCCC[C@H]2C1 (relative stereo) and state if its pEC50 is at or above 8.
Met

Please check the record "Cc1ccc(C(=O)Nc2ccccc2Cl)cc1S(=O)(=O)N1CCCCC1" and state if its pEC50 is at or above 8.
Met

Please check the record Cc1ccc(C(=O)N2CC[C@@H]3CCCC[C@H]3C2)cc1S(=O)(=O)N1CCCCC1 (relative stereo) and state if its pEC50 is at or above 8.
Met

Please check the record Cc1ccc(C(=O)N2CCC3CCCCC3C2)cc1S(=O)(=O)N1CCSCC1 (stereo not drawn) and state if its pEC50 is at or above 8.
Met

Please check the record Cc1ccc(C(=O)N2CCC3CCCCC3C2)cc1S(=O)(=O)N1CCS(=O)(=O)CC1 (stereo not drawn) and state if its pEC50 is at or above 8.
Met

Please check the record Cc1ccc(C(=O)N2CCC3CCCCC3C2)cc1S(=O)(=O)N1CCCCC1 (stereo not drawn) and state if its pEC50 is at or above 8.
Met

Please check the record "Cc1ccc(C(=O)N2CCCCC2)cc1S(=O)(=O)N1CCCCC1" and state if its pEC50 is at or above 8.
Not met

Please check the record "O=C(NC1CCCCC1)c1cccc(S(=O)(=O)N2CCCC2)c1" and state if its pEC50 is at or above 8.
Not met

Please check the record "CC(C)c1ccc(C(=O)NC2CCCCC2)cc1S(=O)(=O)N1CCCC1" and state if its pEC50 is at or above 8.
Met

Please check the record "Cc1ccccc1NC(=O)c1ccc(C)c(S(=O)(=O)N2CCCCC2)c1" and state if its pEC50 is at or above 8.
Not met

Please check the record "Cc1ccc(C(=O)Nc2ccccc2)cc1S(=O)(=O)N1CCCCC1" and state if its pEC50 is at or above 8.
Not met

Please check the record Cc1ccc(C(=O)N2CCC3CCCCC3C2)cc1S(=O)(=O)Nc1ccccc1 (stereo not drawn) and state if its pEC50 is at or above 8.
Not met

Please check the record Cc1ccc(C(=O)N2CCC3CCCCC3C2)cc1S(=O)(=O)N1CCCC1 (stereo not drawn) and state if its pEC50 is at or above 8.
Met

Please check the record O=C(c1cccc(S(=O)(=O)N2CCCC2)c1)N1CC[C@@H]2CCCC[C@H]2C1 (relative stereo) and state if its pEC50 is at or above 8.
Not met

Please check the record "Cc1ccc(C(=O)Nc2cccc(Cl)c2)cc1S(=O)(=O)N1CCCCC1" and state if its pEC50 is at or above 8.
Not met

Please check the record "Cc1ccc(C(=O)N[C@H](C)C2CCCCC2)cc1S(=O)(=O)N1CCCCC1" and state if its pEC50 is at or above 8.
Not met

Please check the record Cc1ccc(C(=O)N2CCC3CCCCC3C2)cc1S(=O)(=O)N1CCOCC1 (stereo not drawn) and state if its pEC50 is at or above 8.
Met

Please check the record "Cc1ccc(C(=O)N(C)C2CCCCC2)cc1S(=O)(=O)N1CCCCC1" and state if its pEC50 is at or above 8.
Not met

Please check the record "COc1ccccc1NC(=O)c1ccc(C)c(S(=O)(=O)N2CCCCC2)c1" and state if its pEC50 is at or above 8.
Not met

Please check the record Cc1ccc(C(=O)N2CCC3CCCCC3C2)cc1S(=O)(=O)N1CCC(O)CC1 (stereo not drawn) and state if its pEC50 is at or above 8.
Not met

Please check the record "Cc1ccc(C(=O)Nc2nccc3ccccc23)cc1S(=O)(=O)N1CCCCC1" and state if its pEC50 is at or above 8.
Met

Please check the record "Cc1ccc(C(=O)Nc2ccc(Cl)cc2)cc1S(=O)(=O)N1CCCCC1" and state if its pEC50 is at or above 8.
Not met

Please check the record "Cc1ccc(C(=O)N(C)c2ccccc2Cl)cc1S(=O)(=O)N1CCCCC1" and state if its pEC50 is at or above 8.
Not met

Please check the record O=C(c1ccc(C2CCCCC2)c(S(=O)(=O)N2CCCC2)c1)N1CCC2CCCCC2C1 (stereo not drawn) and state if its pEC50 is at or above 8.
Not met

Please check the record "Cc1ccc(C(=O)Nc2cccc3cccnc23)cc1S(=O)(=O)N1CCCCC1" and state if its pEC50 is at or above 8.
Met

Please check the record Cc1ccc(C(=O)N2CCC3CCCCC3C2)cc1S(=O)(=O)N1CCN(C(C)C)CC1 (stereo not drawn) and state if its pEC50 is at or above 8.
Not met

Please check the record Cc1ccc(C(=O)N2CCC3CCCCC3C2)cc1S(=O)(=O)N1CCCCCC1 (stereo not drawn) and state if its pEC50 is at or above 8.
Met

Please check the record "Cc1ccc(C(=O)N[C@@H](C)C2CCCCC2)cc1S(=O)(=O)N1CCCCC1" and state if its pEC50 is at or above 8.
Met

Please check the record "Cc1ccc(C(=O)Nc2ccccc2C(F)(F)F)cc1S(=O)(=O)N1CCCCC1" and state if its pEC50 is at or above 8.
Met

Please check the record "Cc1ccc(C(=O)NC2CCCCC2)cc1S(=O)(=O)N1CCCC1" and state if its pEC50 is at or above 8.
Not met

Please check the record "O=C(NC1CCCCC1)c1ccc(Cl)c(S(=O)(=O)N2CCCC2)c1" and state if its pEC50 is at or above 8.
Met

Please check the record "COc1ccc2c(c1)c(CCN1CCOCC1)c(C)n2C(=O)c1cccc(Cl)c1Cl" and state if its pEC50 is at or above 8.
Met

Please check the record "Cc1ccc(C(=O)NC2(C)CCCCC2)cc1S(=O)(=O)N1CCCCC1" and state if its pEC50 is at or above 8.
Not met

These measurements were taken from ChEMBL document CHEMBL1141512.
